Kd overview
# experimentNotes: Binding affinity to bcl-2 i-Motif DNA (unknown origin) by fluorescence based assay
readout: Kd

structureSmilesString | readout | valueMeasured
CC(C)CC[C@H](C)[C@@H]1CC[C@H]2[C@@H]3CC[C@H]4C[C@@H](NC(=O)C[N+]5(C)CCCCC5)CC[C@]4(C)[C@H]3CC[C@@]21C | Kd | 490 nM
COc1ccc2c(c1)CN([C@@H](C)[C@H]1CC[C@H]3[C@@H]4CC[C@H]5C[C@@H](O)CC[C@]5(C)[C@H]4CC[C@]13C)CO2 | Kd | 1010 nM

All figures here come from ChEMBL document CHEMBL3352292.
